target or test system: human NOP receptor (Homo sapiens)
Construct: expressed in transfected cells; host or cells: CHO cells stably coexpressing the receptor and chimeric Gαqi5
method summary: Calcium mobilization, NOP receptor
Format: cell-based
stated conditions: read-out: NOP Emax ± S.E.M., Table 2 series; percent over the baseline fluorescence; mean ± SEM of at least three experiments in duplicate; SEM
Where a SMILES comes first, the peptide text is derived from it. [ ]: non-standard residue; d: D form. Dmt = Cc1cc(O)cc(C)c1C[C@H](N)C(=O)O; Phg = N[C@H](C(=O)O)c1ccccc1
measure: Emax (%)
Just the number please, in %, no unit attached.

INPUT: Provide the documented Emax with human NOP receptor (Homo sapiens) as the system for Cc1cc(O)cc(C)c1C[C@H](NC(=O)[C@H](Cc1ccccc1)NC(=O)CNC(=O)CNC(=O)[C@@H](N)Cc1ccc(O)cc1)C(=O)NCC(=O)N[C@@H](C)C(=O)N[C@@H](CCCNC(=N)N)C(=O)N[C@@H](CCCCN)C(=O)N[C@@H](CO)C(=O)N[C@@H](C)C(=O)N[C@@H](CCCNC(=N)N)C(=O)N[C@@H](CCCCN)C(N)=O [Compound 28, [Tyr^1,Dmt^5]N/OFQ(1-13)-NH2] (H-YGGF[Dmt]GARKSARK-NH2)
OUTPUT: 251

INPUT: Provide the documented Emax with human NOP receptor (Homo sapiens) as the system for C[C@H](NC(=O)CNC(=O)[C@@H](NC(=O)[C@H](Cc1ccccc1)NC(=O)CNC(=O)CNC(=O)[C@@H](N)Cc1ccc(O)cc1)c1ccccc1)C(=O)N[C@@H](CCCNC(=N)N)C(=O)N[C@@H](CCCCN)C(=O)N[C@@H](CO)C(=O)N[C@@H](C)C(=O)N[C@@H](CCCNC(=N)N)C(=O)N[C@@H](CCCCN)C(N)=O [Compound 19, [Tyr^1,Phg^5]N/OFQ(1-13)-NH2] (H-YGGF[Phg]GARKSARK-NH2)
OUTPUT: 293

INPUT: Provide the documented Emax with human NOP receptor (Homo sapiens) as the system for COc1ccc(C[C@H](NC(=O)[C@H](Cc2ccccc2)NC(=O)CNC(=O)CNC(=O)[C@@H](N)Cc2ccc(O)cc2)C(=O)NCC(=O)N[C@@H](C)C(=O)N[C@@H](CCCNC(=N)N)C(=O)N[C@@H](CCCCN)C(=O)N[C@@H](CO)C(=O)N[C@@H](C)C(=O)N[C@@H](CCCNC(=N)N)C(=O)N[C@@H](CCCCN)C(N)=O)cc1 [Compound 20, [Tyr^1,p(OCH3)Phe^5]N/OFQ(1-13)-NH2] (H-YGGFY(Me)GARKSARK-NH2)
OUTPUT: 246

* * *

target or test system: human NOP receptor (Homo sapiens, UniProt P41146)
Construct: expressed in transfected cells; host or cells: CHO cells stably coexpressing the receptor and chimeric Gαqi5
Sequence (P41146 whole entry): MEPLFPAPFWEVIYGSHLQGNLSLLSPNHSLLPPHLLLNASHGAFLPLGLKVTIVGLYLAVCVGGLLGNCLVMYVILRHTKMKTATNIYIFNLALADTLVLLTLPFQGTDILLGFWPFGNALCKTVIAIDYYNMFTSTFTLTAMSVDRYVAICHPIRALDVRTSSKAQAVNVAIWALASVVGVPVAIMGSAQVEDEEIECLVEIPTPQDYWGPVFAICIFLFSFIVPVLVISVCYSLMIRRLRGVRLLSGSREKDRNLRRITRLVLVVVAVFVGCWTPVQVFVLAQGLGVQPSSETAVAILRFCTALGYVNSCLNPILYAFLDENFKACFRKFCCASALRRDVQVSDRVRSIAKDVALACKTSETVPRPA
method summary: Calcium mobilization, NOP receptor
Type: cell-based
stated conditions: read-out: NOP Emax ± S.E.M., Table 2 series; percent over the baseline fluorescence; mean ± SEM of at least three experiments in duplicate; SEM
Where a SMILES comes first, the peptide text is derived from it. [ ]: non-standard residue; d: D form. Bip = N[C@@H](Cc1ccc(-c2ccccc2)cc1)C(=O)O; Dip = N[C@H](C(=O)O)C(c1ccccc1)c1ccccc1; Phe(4-F) = N[C@@H](Cc1ccc(F)cc1)C(=O)O; 2Nal = N[C@@H](Cc1ccc2ccccc2c1)C(=O)O; hPhe = N[C@@H](CCc1ccccc1)C(=O)O
For each record, write down the corresponding Emax.
Phrase the answer as number then unit, nothing more needed.

INPUT: GET /values?readout=Emax&item= C[C@H](NC(=O)CNC(=O)[C@H](CCc1ccccc1)NC(=O)[C@H](Cc1ccccc1)NC(=O)CNC(=O)CNC(=O)[C@@H](N)Cc1ccc(O)cc1)C(=O)N[C@@H](CCCNC(=N)N)C(=O)N[C@@H](CCCCN)C(=O)N[C@@H](CO)C(=O)N[C@@H](C)C(=O)N[C@@H](CCCNC(=N)N)C(=O)N[C@@H](CCCCN)C(N)=O [Compound 18, [Tyr^1,hPhe^5]N/OFQ(1-13)-NH2] (H-YGGF[hPhe]GARKSARK-NH2)
OUTPUT: 301%

INPUT: GET /values?readout=Emax&item= C[C@H](NC(=O)CNC(=O)[C@H](Cc1ccc2ccccc2c1)NC(=O)[C@H](Cc1ccccc1)NC(=O)CNC(=O)CNC(=O)[C@@H](N)Cc1ccc(O)cc1)C(=O)N[C@@H](CCCNC(=N)N)C(=O)N[C@@H](CCCCN)C(=O)N[C@@H](CO)C(=O)N[C@@H](C)C(=O)N[C@@H](CCCNC(=N)N)C(=O)N[C@@H](CCCCN)C(N)=O [Compound 26, [Tyr^1,2Nal^5]N/OFQ(1-13)-NH2] (H-YGGF[2Nal]GARKSARK-NH2)
OUTPUT: 266%

INPUT: GET /values?readout=Emax&item= C[C@H](NC(=O)CNC(=O)[C@@H](NC(=O)[C@H](Cc1ccccc1)NC(=O)CNC(=O)CNC(=O)[C@@H](N)Cc1ccc(O)cc1)C(c1ccccc1)c1ccccc1)C(=O)N[C@@H](CCCNC(=N)N)C(=O)N[C@@H](CCCCN)C(=O)N[C@@H](CO)C(=O)N[C@@H](C)C(=O)N[C@@H](CCCNC(=N)N)C(=O)N[C@@H](CCCCN)C(N)=O [Compound 23, [Tyr^1,Dip^5]N/OFQ(1-13)-NH2] (H-YGGF[Dip]GARKSARK-NH2)
OUTPUT: 240%

INPUT: GET /values?readout=Emax&item= C[C@H](NC(=O)CNC(=O)[C@H](Cc1ccc(F)cc1)NC(=O)[C@H](Cc1ccccc1)NC(=O)CNC(=O)CNC(=O)[C@@H](N)Cc1ccc(O)cc1)C(=O)N[C@@H](CCCNC(=N)N)C(=O)N[C@@H](CCCCN)C(=O)N[C@@H](CO)C(=O)N[C@@H](C)C(=O)N[C@@H](CCCNC(=N)N)C(=O)N[C@@H](CCCCN)C(N)=O [Compound 21, [Tyr^1,(pF)Phe^5]N/OFQ(1-13)-NH2] (H-YGGF[Phe(4-F)]GARKSARK-NH2)
OUTPUT: 311%

INPUT: GET /values?readout=Emax&item= C[C@H](NC(=O)CNC(=O)[C@H](Cc1ccc(-c2ccccc2)cc1)NC(=O)[C@H](Cc1ccccc1)NC(=O)CNC(=O)CNC(=O)[C@@H](N)Cc1ccc(O)cc1)C(=O)N[C@@H](CCCNC(=N)N)C(=O)N[C@@H](CCCCN)C(=O)N[C@@H](CO)C(=O)N[C@@H](C)C(=O)N[C@@H](CCCNC(=N)N)C(=O)N[C@@H](CCCCN)C(N)=O [Compound 24, [Tyr^1,Bip^5]N/OFQ(1-13)-NH2] (H-YGGF[Bip]GARKSARK-NH2)
OUTPUT: 272%
